B1: TPR 5TU (parent)
chain: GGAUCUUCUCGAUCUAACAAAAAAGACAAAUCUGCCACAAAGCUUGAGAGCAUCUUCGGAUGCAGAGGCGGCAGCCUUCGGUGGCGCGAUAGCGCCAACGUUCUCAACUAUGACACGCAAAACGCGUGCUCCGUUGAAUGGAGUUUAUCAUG

# Variants of: B1
# assay comment: polymerase ribozyme fitness, log enrichment relative to wild type (log ratio); higher = more active; in vitro selection for triplet polymerase activity
This sample holds only a part of the variants without activity.
readout type: polymerase ribozyme fitness (log ratio)

A24U A28G A29U C93G C114U ... ≤ -4.2
A89U C95A A97U U111G G124A C149A U151C ... ≤ -4.2
U55A C85A G100A A121G C131A ... ≤ -4.2
C72U C76A ... -1.91
C5G U7A C93U A106C ... -3.03
G25U A52C C87A U90G A142G ... ≤ -4.2
G48A C125U ... -0.97
C10A A23G C32A C38U G46U G59A A60G A97G ... ≤ -4.2
A39C G81A G94U A106G A110C G140U ... -4.04
A21C U53G C87A C95A C149G ... ≤ -4.2
A22C C51A C93G A98C C116U U135C ... ≤ -4.2
U13G G48A C93A C125G ... ≤ -4.2
A3U G46C U77C G86U A98U A121U U127A ... -4.08
A52G U77G A91C ... ≤ -4.2
A98U C105A A119G A121C ... -0.491
C18G A52G C87U ... -1.15
C93A A119G A120U ... -2.53
C43U U61A G80A G94U A106C A122U ... ≤ -4.2
A47G U55A C79G C93U ... ≤ -4.2
G11A G34C U56A C57U C99G A142C ... ≤ -4.2
A60C A91U C93G A122C ... ≤ -4.2
A17U A21U G67C C76U A91U C118G ... ≤ -4.2
